System: 565726-208-R1-J5-PDC complex spheroids, growth inhibition;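 further: spheroids exposed to compounds for seven days before readout; 100% = DMSO vehicle control viability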
Protocol text: Anticancer human tumor 565726-208-R1-J5-PDC patient-derived pancreatic adenocarcinoma cell line growth inhibition [RAS]
Condition details: second compound 0.0949 µM; first compound 0.01 µM; stronger effect = lower value
Value kind: viability, T/C (%)
Dear colleague, please return just the value in %, with no unit written.

Identify measured viability, T/C associated with O=C(c1ccc(F)c(F)c1Nc1ccc(I)cc1F)N1CC(O)([C@@H]2CCCCN2)C1 + CCn1c(-c2cc(N3CCN(C)CC3)cnc2C(C)OC)c2c3cc(ccc31)-c1csc(n1)CC(NC(=O)C1CC1C)C(=O)N1CCCC(N1)C(=O)OCC(C)(C)C2
12.8

Give a short answer stating reported viability, T/C for CC(C)n1nc(-c2ccc3oc(N)nc3c2)c2c(N)ncnc21 + CCn1c(-c2cc(N3CCN(C)CC3)cnc2C(C)OC)c2c3cc(ccc31)-c1csc(n1)CC(NC(=O)C1CC1C)C(=O)N1CCCC(N1)C(=O)OCC(C)(C)C2 .
14.6

Please give measured viability, T/C of the following entry: CCN1CCN(Cc2ccc(Nc3ncc(F)c(-c4cc(F)c5nc(C)n(C(C)C)c5c4)n3)nc2)CC1 + CCn1c(-c2cccnc2C(C)OC)c2c3cc(ccc31)N1CCOC(CC(NC(=O)C(C(C)C)N(C)C(=O)C3(F)CCN(C(=O)C#CC(C)(C)N(C)C)CC3)C(=O)N3CCCC(N3)C(=O)OCC(C)(C)C2)C1
94.7

Respond only with viability, T/C recorded for CC(C)n1nc(-c2ccc3oc(N)nc3c2)c2c(N)ncnc21 + CCn1c(-c2cccnc2C(C)OC)c2c3cc(ccc31)N1CCOC(CC(NC(=O)C(C(C)C)N(C)C(=O)C3(F)CCN(C(=O)C#CC(C)(C)N(C)C)CC3)C(=O)N3CCCC(N3)C(=O)OCC(C)(C)C2)C1
62.1

Please look at this molecule and report its viability, T/C: O=C(c1ccc(F)c(F)c1Nc1ccc(I)cc1F)N1CC(O)([C@@H]2CCCCN2)C1 + CCn1c(-c2cccnc2C(C)OC)c2c3cc(ccc31)N1CCOC(CC(NC(=O)C(C(C)C)N(C)C(=O)C3(F)CCN(C(=O)C#CC(C)(C)N(C)C)CC3)C(=O)N3CCCC(N3)C(=O)OCC(C)(C)C2)C1
78.8

Identify measured viability, T/C associated with C=CC(=O)Nc1cc(Nc2nccc(-c3cn(C)c4ccccc34)n2)c(OC)cc1N(C)CCN(C)C + CCn1c(-c2cccnc2C(C)OC)c2c3cc(ccc31)N1CCOC(CC(NC(=O)C(C(C)C)N(C)C(=O)C3(F)CCN(C(=O)C#CC(C)(C)N(C)C)CC3)C(=O)N3CCCC(N3)C(=O)OCC(C)(C)C2)C1
87

Identify viability, T/C associated with the molecule C=CC(=O)N1CCN(c2nc(OCC3CCCN3C)nc3c(F)c(-c4nc(N)cc(C)c4C(F)(F)F)c(Cl)cc23)C(C)C1 (stereo not given) + CCn1c(-c2cccnc2C(C)OC)c2c3cc(ccc31)N1CCOC(CC(NC(=O)C(C(C)C)N(C)C(=O)C3(F)CCN(C(=O)C#CC(C)(C)N(C)C)CC3)C(=O)N3CCCC(N3)C(=O)OCC(C)(C)C2)C1
109

Kindly indicate its recorded viability, T/C. Item: Nc1ccn(C2OC(CO)C(O)C2(F)F)c(=O)n1 (stereo not given) + CCn1c(-c2cccnc2C(C)OC)c2c3cc(ccc31)N1CCOC(CC(NC(=O)C(C(C)C)N(C)C(=O)C3(F)CCN(C(=O)C#CC(C)(C)N(C)C)CC3)C(=O)N3CCCC(N3)C(=O)OCC(C)(C)C2)C1
88.4

Recall and state the measured viability, T/C for C=CC(=O)N1CCN(c2nc(OCC3CCCN3C)nc3c(F)c(-c4nc(N)cc(C)c4C(F)(F)F)c(Cl)cc23)C(C)C1 (stereo not given) + CCn1c(-c2cc(N3CCN(C)CC3)cnc2C(C)OC)c2c3cc(ccc31)-c1csc(n1)CC(NC(=O)C1CC1C)C(=O)N1CCCC(N1)C(=O)OCC(C)(C)C2 .
27.1

Output measured viability, T/C for this item: CCN1CCN(Cc2ccc(Nc3ncc(F)c(-c4cc(F)c5nc(C)n(C(C)C)c5c4)n3)nc2)CC1 + CCn1c(-c2cc(N3CCN(C)CC3)cnc2C(C)OC)c2c3cc(ccc31)-c1csc(n1)CC(NC(=O)C1CC1C)C(=O)N1CCCC(N1)C(=O)OCC(C)(C)C2
23.8

Entry source: PubChem BioAssay AID2060899
